src = patent US20240390408A1

test: Tissue concentrations of Formula I and its metabolites in Göttingen pigs after a single oral or intravenous dose (LC-MS/MS); type: in vivo; details: both sexes, Göttingen, pig (minipig), in vivo, 125 mg/kg, liver; single oral dose of Formula I 125 mg/kg; 3 hpd; read-out: Tissue concentration in Göttingen pig liver (Table 7)
METRIC: concentration at 3 h
Write your answer as a measured quantity: the number, then the unit.

Param item = CC(C)OC(=O)[C@H](C)N[P@](=O)(OC[C@H]1O[C@@H](n2ccc(=O)[nH]c2=S)C(C)(O)C1O)Oc1ccccc1 (stereo partly shown) ; retrieve measured concentration at 3 h.
496 nM

###

test: Tissue concentrations of Formula I and its metabolites in Göttingen pigs after a single oral or intravenous dose (LC-MS/MS); type: in vivo; settings: both sexes, Göttingen, pig (minipig); lung; single intravenous bolus of Formula I 25 mg/kg; 12 hpd; read-out: Tissue concentration, lung
METRIC: concentration at 12 h (ng/g)
Reply numerically in ng/g, unit not repeated.

{"columns": ["COMPOUND", "UNITS", "concentration at 12 h"],
 "data": [
  ["C[C@H](NP(=O)(O)OC[C@H]1O[C@@H](n2ccc(=O)[nH]c2=S)C(C)(O)C1O)C(=O)O (stereo in doubt)", "ng/g", 31.8]
]}

Report concentration at 12 h for CC1(O)[C@@H](O)[C@@H](COP(=O)(O)O)O[C@H]1n1ccc(=O)[nH]c1=S (stereo partly shown) please.
357

I would be grateful if you could share the reported concentration at 12 h for `C[C@@]1(O)[C@H](O)[C@@H](CO)O[C@H]1n1ccc(=O)[nH]c1=S` .
93.9

# concentration at 12 h lookup, item CC1(O)[C@@H](O)[C@@H](COP(=O)(O)OP(=O)(O)OP(=O)(O)O)O[C@H]1n1ccc(=O)[nH]c1=S (stereo partly shown)
455
